System: Rattus norvegicus
Test: Maximum biliary secretion rate of TCDCA after iv coinfusion in Bile fistula rats.
Type: ADME, organism-based
Conditions: in vivo
Quick rule for you: Smax at 5 µM/min/kg or higher means Fulfilled, lower means Not fulfilled.

(Q) Entry CC(CCC(=O)N1CCC[C@H]1C(=O)O)C1CC[C@H]2[C@@H]3[C@@H](O)CC4C[C@H](O)CC[C@]4(C)[C@H]3CC[C@]12C (some centres not stated) : is its Smax no less than 5 µM/min/kg?
(A) Not fulfilled

(Q) Please do the same for CC(CCC(=O)NCC(=O)O)C1CC[C@H]2[C@@H]3[C@H](O)CC4C[C@H](O)CCC4(C)[C@H]3CCC12C (some centres not stated) as well.
(A) Not fulfilled

(Q) Ok, now CC(CCC(=O)N1CCC[C@@H]1C(=O)O)C1CC[C@H]2[C@@H]3C[C@H](O)C4C[C@H](O)CC[C@]4(C)[C@H]3CC[C@]12C (some centres not stated)
(A) Not fulfilled

(Q) How about CC(CCC(=O)N1CCC[C@@H]1C(=O)O)C1CC[C@H]2[C@@H]3[C@@H](O)CC4C[C@H](O)CC[C@]4(C)[C@H]3CC[C@]12C (some centres not stated) ?
(A) Fulfilled

(Q) What would you report for CO[C@H]1C[C@H](C(=O)O)N(C(=O)CCC(C)C2CC[C@H]3[C@@H]4[C@@H](O)CC5C[C@H](O)CC[C@]5(C)[C@H]4CC[C@]23C)C1 (some centres not stated) ?
(A) Fulfilled

---

Test system: Rattus norvegicus
Assay: Secretion of cholesterol in Bile Fistula rats after the iv administration of compound, expressed as the residual secretion rate
Type: ADME, organism-based
Conditions: in vivo
So basically: Rs at 20 nM/min/kg or higher? That is class 1. Lower than 20 nM/min/kg? That is class 0.

(Q) Is Rs for CC(CCC(=O)N1CCC[C@@H]1C(=O)O)C1CC[C@H]2[C@@H]3C[C@H](O)C4C[C@H](O)CC[C@]4(C)[C@H]3CC[C@]12C (stereo partly drawn) at or above 20 nM/min/kg?
(A) class 1

(Q) Request: CC(CCC(=O)N1CCC[C@@H]1C(=O)O)C1CC[C@H]2[C@@H]3[C@H](O)[C@H](O)C4C[C@H](O)CC[C@]4(C)[C@H]3CC[C@]12C (stereo partly drawn)
(A) class 1

(Q) Ok, now C[C@H](CCC(=O)O)[C@H]1CC[C@H]2[C@@H]3[C@@H](O)C[C@@H]4C[C@H](O)CC[C@]4(C)[C@H]3CC[C@]12C [URSODIOL]
(A) class 1

(Q) How about CO[C@H]1C[C@H](C(=O)O)N(C(=O)CCC(C)C2CC[C@H]3[C@@H]4[C@@H](O)CC5C[C@H](O)CC[C@]5(C)[C@H]4CC[C@]23C)C1 (stereo partly drawn) ?
(A) class 0

(Q) And then CC(CCC(=O)NCC(=O)O)C1CC[C@H]2[C@@H]3[C@H](O)CC4C[C@H](O)CCC4(C)[C@H]3CCC12C (stereo partly drawn) , what is it?
(A) class 0

(Q) Would you mind doing CC(CCC(=O)N1C[C@@H](O)C[C@@H]1C(=O)O)C1CC[C@H]2[C@@H]3[C@@H](O)CC4C[C@H](O)CC[C@]4(C)[C@H]3CC[C@]12C (stereo partly drawn) as well?
(A) class 1

(Q) Please answer likewise for CC(CCC(=O)N1CCC[C@H]1C(=O)O)C1CC[C@H]2[C@@H]3[C@@H](O)CC4C[C@H](O)CC[C@]4(C)[C@H]3CC[C@]12C (stereo partly drawn)
(A) class 1

(Q) Continue with CC(CCC(=O)N1CCC[C@@H]1C(=O)O)C1CC[C@H]2[C@@H]3[C@@H](O)CC4C[C@H](O)CC[C@]4(C)[C@H]3CC[C@]12C (stereo partly drawn)
(A) class 1

---

Test: The compound was incubated with human stools and tested for determining the stability towards C-24 Deamination
Type: ADME, organism-based
Conditions: in the assay text read “7-dehydroxylation” for “C-24 Deamination”
Kindly supply the reported half-life values for the records listed here.

(Q) Fill in: half-life of CC(CCC(=O)N1CCC[C@@H]1C(=O)O)C1CC[C@H]2[C@@H]3[C@H](O)[C@H](O)C4C[C@H](O)CC[C@]4(C)[C@H]3CC[C@]12C (some centres not stated) is ___
(A) > 72 h

(Q) Next entry: CC(CCC(=O)N1CCC[C@@H]1C(=O)O)C1CC[C@H]2[C@@H]3C[C@H](O)C4C[C@H](O)CC[C@]4(C)[C@H]3CC[C@]12C (some centres not stated)
(A) > 72 h

---

Test: Acidity constant of the compound. was determined
Format: ADME
PROPERTY LABEL: pKa
No unit in the answer, only the number.

(Q) # get_value(readout='pKa', item= C[C@H](CCC(=O)O)[C@H]1CC[C@H]2[C@@H]3C[C@H](O)[C@@H]4C[C@H](O)CC[C@]4(C)[C@H]3CC[C@]12C [HYODEOXYCHOLIC_ACID] )
(A) 5

---

Tested on: Rattus norvegicus
Assay: Bile flow in Bile Fistula rats after iv coinfusion of TCDCA and compound.
Assay type: ADME, organism-based
Settings: in vivo
PROPERTY LABEL: Smax
The number alone won't do; follow it with the unit.

(Q) Which Smax is reported with Rattus norvegicus for this entry: CO[C@H]1C[C@H](C(=O)O)N(C(=O)CCC(C)C2CC[C@H]3[C@@H]4[C@@H](O)CC5C[C@H](O)CC[C@]5(C)[C@H]4CC[C@]23C)C1 (stereo partly drawn) ?
(A) 84 µL/min/kg

(Q) Same again, this time with CC(CCC(=O)N1CCC[C@@H]1C(=O)O)C1CC[C@H]2[C@@H]3C[C@H](O)C4C[C@H](O)CC[C@]4(C)[C@H]3CC[C@]12C (stereo partly drawn)
(A) 83 µL/min/kg

(Q) Moving on to the next compound: CC(CCC(=O)N1CCC[C@H]1C(=O)O)C1CC[C@H]2[C@@H]3[C@@H](O)CC4C[C@H](O)CC[C@]4(C)[C@H]3CC[C@]12C (stereo partly drawn)
(A) 97 µL/min/kg

(Q) Continue with CC(CCC(=O)N1CCC[C@@H]1C(=O)O)C1CC[C@H]2[C@@H]3[C@H](O)[C@H](O)C4C[C@H](O)CC[C@]4(C)[C@H]3CC[C@]12C (stereo partly drawn)
(A) 100 µL/min/kg

(Q) Queued: `C[C@H](CCC(=O)O)[C@H]1CC[C@H]2[C@@H]3[C@@H](O)C[C@@H]4C[C@H](O)CC[C@]4(C)[C@H]3CC[C@]12C`
(A) 72 µL/min/kg

(Q) Entry CC(CCC(=O)N1CCC[C@@H]1C(=O)O)C1CC[C@H]2[C@@H]3[C@@H](O)CC4C[C@H](O)CC[C@]4(C)[C@H]3CC[C@]12C (stereo partly drawn) please
(A) 86 µL/min/kg

(Q) Lookup CC(CCC(=O)N1C[C@@H](O)C[C@@H]1C(=O)O)C1CC[C@H]2[C@@H]3[C@@H](O)CC4C[C@H](O)CC[C@]4(C)[C@H]3CC[C@]12C (stereo partly drawn)
(A) 90 µL/min/kg

(Q) Also need CC(CCC(=O)NCC(=O)O)C1CC[C@H]2[C@@H]3[C@H](O)CC4C[C@H](O)CCC4(C)[C@H]3CCC12C (stereo partly drawn) , thanks.
(A) 63 µL/min/kg

---

Give half-life for every item shown.
Assay: The compound was incubated with human stools and tested for determining the stability towards 7-dehydroxylation
Assay type: ADME, organism-based

(Q) Bench note: what half-life did CC(CCC(=O)N1CCC[C@@H]1C(=O)O)C1CC[C@H]2[C@@H]3[C@@H](O)CC4C[C@H](O)CC[C@]4(C)[C@H]3CC[C@]12C (stereo not given in full) show?
(A) > 72 h

(Q) Next: CO[C@H]1C[C@H](C(=O)O)N(C(=O)CCC(C)C2CC[C@H]3[C@@H]4[C@@H](O)CC5C[C@H](O)CC[C@]5(C)[C@H]4CC[C@]23C)C1 (stereo not given in full)
(A) > 72 h

(Q) # iterate: CC(CCC(=O)N1CCC[C@H]1C(=O)O)C1CC[C@H]2[C@@H]3[C@@H](O)CC4C[C@H](O)CC[C@]4(C)[C@H]3CC[C@]12C (stereo not given in full)
(A) > 72 h

(Q) Queued: CC(CCC(=O)NCC(=O)O)C1CC[C@H]2[C@@H]3[C@H](O)CC4C[C@H](O)CCC4(C)[C@H]3CCC12C (stereo not given in full)
(A) 2 h

(Q) Query CC(CCC(=O)N1C[C@@H](O)C[C@@H]1C(=O)O)C1CC[C@H]2[C@@H]3[C@@H](O)CC4C[C@H](O)CC[C@]4(C)[C@H]3CC[C@]12C (stereo not given in full) next
(A) > 72 h

---

Tested on: Rattus norvegicus
Assay: Calcium output in Bile Fistula rats after iv coinfusion of TCDCA and compound.
Type: ADME, organism-based
Settings: in vivo
Returns: string. Value is True if measured Smax is below 0.4 µM/min/kg, and False if it is greater than or equal to it.

(Q) Just wondering, is Smax of CO[C@H]1C[C@H](C(=O)O)N(C(=O)CCC(C)C2CC[C@H]3[C@@H]4[C@@H](O)CC5C[C@H](O)CC[C@]5(C)[C@H]4CC[C@]23C)C1 (stereo partly drawn) below 0.4 µM/min/kg?
(A) False

(Q) Entry CC(CCC(=O)N1CCC[C@H]1C(=O)O)C1CC[C@H]2[C@@H]3[C@@H](O)CC4C[C@H](O)CC[C@]4(C)[C@H]3CC[C@]12C (stereo partly drawn) please
(A) True

(Q) Okay, and CC(CCC(=O)N1CCC[C@@H]1C(=O)O)C1CC[C@H]2[C@@H]3C[C@H](O)C4C[C@H](O)CC[C@]4(C)[C@H]3CC[C@]12C (stereo partly drawn) ?
(A) False

(Q) Same lookup for CC(CCC(=O)N1C[C@@H](O)C[C@@H]1C(=O)O)C1CC[C@H]2[C@@H]3[C@@H](O)CC4C[C@H](O)CC[C@]4(C)[C@H]3CC[C@]12C (stereo partly drawn) , please.
(A) True

(Q) Likewise for CC(CCC(=O)NCC(=O)O)C1CC[C@H]2[C@@H]3[C@H](O)CC4C[C@H](O)CCC4(C)[C@H]3CCC12C (stereo partly drawn) ?
(A) True
